For each of the molecules below, state its TGI.
Tested on: KM12 colon
Test: NCI tumour cell line growth inhibition, 48 h

Exercise: Query: TGI; subject: COc1cc2nc3n(c2cc1OC)C(O)c1c(Cl)nc(SC)nc1S3 (stereo unspecified)
Solution: > 100 µM

Exercise: Query: TGI; subject: CCC(C)N1CN(c2ccccc2)C2(CCN(CC3COc4ccccc4O3)CC2)C1=O (stereo unspecified)
Solution: 43.9 µM

Exercise: Query: TGI; subject: "COc1ccc2c(c1)/C(=C/c1c(O)[nH]c(=S)[nH]c1=O)C=N2"
Solution: > 100 µM

Exercise: Query: TGI; subject: "COC(=O)c1c2c(c(C)[n+]([O-])c1C)C(=O)C(NCc1ccc(OC)cc1)=CC2=O"
Solution: 8.68 µM

Exercise: Query: TGI; subject: "CCCCn1c(=O)[nH]c(N)c([C@@H]2c3c([nH]c(=O)n(CCCC)c3=O)Oc3ccc4ccccc4c32)c1=O"
Solution: 3.26 µM

Exercise: Query: TGI; subject: "COc1ccc(N2C(=O)c3cc([N+](=O)[O-])cnc3S2(=O)=O)cc1"
Solution: > 100 µM

Exercise: Query: TGI; subject: "N/N=c1/nc2n(c3ncccc13)C=CNN2"
Solution: > 100 µM

Exercise: Query: TGI; subject: C[N+]1([O-])C2CCC1CC(OC(=O)C(CO)c1ccccc1)C2 (stereo unspecified)
Solution: > 100 µM

Exercise: Query: TGI; subject: O=C1CSC(c2c[nH]c3ccccc23)N1c1cccc(Cl)c1 (stereo unspecified)
Solution: > 100 µM

Exercise: Query: TGI; subject: O=C(Cc1ccccc1)NN1C(=O)C(Cl)C1c1ccc(Cl)cc1 (stereo unspecified)
Solution: > 100 µM

Exercise: Query: TGI; subject: "O=c1[nH]c(=S)[nH]cc1CN1CCOCC1"
Solution: > 100 µM

====

For each of the compounds below, state its TGI.
Test system: LXFL 529 NSCLC
Assay: NCI tumour cell line growth inhibition, 48 h
Dear colleague, please return just the value in µM, with no unit written.

Exercise: Query: TGI; subject: "C=C=C[P+](c1ccccc1)(c1ccccc1)c1ccccc1"
Solution: 20.8

Exercise: Query: TGI; subject: CN(C)CC1CC/C(=C\c2ccc(Cl)c(Cl)c2)C1=O (stereo not drawn)
Solution: 27

Exercise: Query: TGI; subject: "O=C(CCc1nnc2s/c(=C\c3ccc([N+](=O)[O-])cc3)c(=O)n12)Nc1ccc(Cl)c(Cl)c1"
Solution: 26.2

Exercise: Query: TGI; subject: Cc1c(C(Cc2ccccc2N(C)C(=O)/C=C\C(=O)O)c2c[nH]c3ccccc23)c2ccccc2n1C (stereo not drawn)
Solution: 26

====

For each of the compounds below, state its GI50.
Tested on: HCC-2998 colon
Assay: NCI tumour cell line growth inhibition, 48 h

Exercise: Query: GI50; subject: "Cn1cc(-c2ccc3nc(-c4ccc(CC(=O)Nc5cc(C(C)(C)C)no5)cc4)cnc3c2)cn1"
Solution: > 1690 nM

Exercise: Query: GI50; subject: "CN1CCN(Cc2ccc(NC(=O)c3cncc(C#Cc4cnc(N)c5ncccc45)c3)cc2C(F)(F)F)CC1"
Solution: 539 nM

Exercise: Query: GI50; subject: N#CC1=C(N)Oc2c(sc3c(Br)cccc23)C1c1ccc([N+](=O)[O-])cc1 (stereo unspecified)
Solution: 284 nM

Exercise: Query: GI50; subject: C=CCC1(O)c2ccccc2C(=O)c2c(OCC(=O)OCC)ccc(OCC(=O)OCC)c21 (stereo unspecified)
Solution: 44900 nM

Exercise: Query: GI50; subject: "CC(=O)/C(=C\c1ccc(Cl)cc1)c1ccccc1"
Solution: 328 nM

Exercise: Query: GI50; subject: "CCCCn1c(=O)[nH]c(N)c([C@@H]2c3c([nH]c(=O)n(CCCC)c3=O)Oc3ccc4ccccc4c32)c1=O"
Solution: 1670 nM

Exercise: Query: GI50; subject: CC(C)=CC[C@@H]1CC2(CC=C(C)C)C(=O)C(OC3(C(=O)c4ccccc4)C(=O)C4(CC=C(C)C)C[C@@H](CC=C(C)C)C(C)(C)C(CC=C(C)C)(C4=O)C3=O)(C(=O)c3ccccc3)C(=O)C(CC=C(C)C)(C2=O)C1(C)C (stereo partly specified)
Solution: 1210 nM

Exercise: Query: GI50; subject: "O=C1NC(=O)C(c2c[nH]c3ccccc23)=C1c1c[nH]c2ccccc12"
Solution: 16200 nM

Exercise: Query: GI50; subject: "O=C(O)c1ccc(N(/C=C/C(=O)C(F)(F)F)Cc2ccc(Cl)cc2)cc1"
Solution: 19800 nM

Exercise: Query: GI50; subject: "COc1cc(/C=C/C(=O)c2cccc(-n3cc(-c4ccccc4)[nH]c3=O)c2)cc(OC)c1OC"
Solution: 1260 nM

Exercise: Query: GI50; subject: "CCN(Cc1ccc(OC)cc1)c1ccc(CO)c(Cl)c1"
Solution: 12900 nM

Exercise: Query: GI50; subject: "C/C(=C\C(=O)O[C@H]1[C@@H]2[C@H](C)CC[C@H]2[C@]2(C)O[C@@]1(C1CCCCC1)C[C@H]2OC(=O)CO)c1ccccc1"
Solution: 7320 nM

Exercise: Query: GI50; subject: "CC(C)=CCC/C(C)=C/CC/C(C)=C/CSC[C@H](NC(=O)CCCCCN1CCN(C)CC1)C(=O)NC1CCCCCC1"
Solution: 1840 nM

Exercise: Query: GI50; subject: "CC[C@@]1(OP(=O)(O)O)C(=O)OCc2c1cc1n(c2=O)Cc2cc3ccccc3nc2-1"
Solution: 1570 nM

Exercise: Query: GI50; subject: "COc1cc2c(c3oc(-c4ccc(O)cc4)c(O)c(=O)c13)CCC(C)(C)O2"
Solution: 254 nM

Exercise: Query: GI50; subject: "CN(C)CCC(N)(P(=O)([O-])[O-])P(=O)([O-])[O-].N.N.[Pt+2]"
Solution: > 100000 nM
